// provenance: ChEMBL document CHEMBL3785076

- ASSAY_PROTOCOL: Half life at steady state in healthy human subjects (6 subjects) at 1200 mg, po for 12 days administered as enteric-coated compound dose by GLC method
- Type: ADME, organism-based
- SETTINGS: in vivo, read-out: t1/2ss (converted)

# MOLECULE, half-life, h
measured = [
    ("CCCC(CCC)C(=O)[O-].[Na+] [VALPROATE SODIUM]", 17.3),
]

###

- ASSAY_PROTOCOL: Steady state plasma concentration before morning dose in healthy human subjects (6 subjects) at 1200 mg, po for 12 days administered as enteric-coated compound dose by GLC method
- Format: ADME, organism-based
- SETTINGS: read-out: Cpss
REPORTED_ENDPOINT: concentration at 288 h (µg/mL)

# COMPOUND, VALUE_REPORTED
records = [
    ("CCCC(CCC)C(=O)[O-].[Na+] [VALPROATE SODIUM]", 75.3),
]

###

- ASSAY_PROTOCOL: Half life in human measured over 24 hrs
- Type: ADME, organism-based
- SETTINGS: in vivo
REPORTED_ENDPOINT: half-life (min)

# COMPOUND, VALUE_REPORTED
measured = [
    ("CCCC(CCC)C(=O)[O-].[Na+] [VALPROATE SODIUM]", 480),
]

###

- ASSAY_PROTOCOL: Plasma concentration in healthy human subjects (6 subjects) at 600 mg, po administered as single enteric-coated compound dose measured after 72 hrs by GLC method
- Format: ADME, organism-based
REPORTED_ENDPOINT: concentration at 72 h

# MOLECULE, VALUE_REPORTED
records = [
    ("CCCC(CCC)C(=O)[O-].[Na+] [VALPROATE SODIUM]", "2500 ng/mL"),
]

###

- ASSAY_PROTOCOL: Plasma concentration in healthy human subjects (6 subjects) at 600 mg, po administered as single enteric-coated compound dose measured after 3 hrs by GLC method
- Type: ADME, organism-based
REPORTED_ENDPOINT: concentration at 3 h (ng/mL)

# COMPOUND, UNIT_ANNOTATION, VALUE_REPORTED
data = [
    ("CCCC(CCC)C(=O)[O-].[Na+] [VALPROATE SODIUM]", "ng/mL", 42800),
]

###

- ASSAY_PROTOCOL: Plasma concentration in healthy human subjects (6 subjects) at 600 mg, po administered as single enteric-coated compound dose measured after 4 hrs by GLC method
- Type: ADME, organism-based
REPORTED_ENDPOINT: concentration at 4 h

# COMPOUND, VALUE_REPORTED
rows = [
    ("CCCC(CCC)C(=O)[O-].[Na+] [VALPROATE SODIUM]", "58.1 µg/mL"),
]

###

- ASSAY_PROTOCOL: Plasma concentration in healthy human subjects (6 subjects) at 600 mg, po administered as single enteric-coated compound dose measured after 6 hrs by GLC method
- Type: ADME, organism-based

# MOLECULE, concentration at 6 h, µg/mL
rows = [
    ("CCCC(CCC)C(=O)[O-].[Na+] [VALPROATE SODIUM]", 53.2),
]

###

- ASSAY_PROTOCOL: Total plasma clearance in healthy human subjects (6 subjects) at 600 mg, po administered as single enteric-coated compound dose measured by GLC method
- Format: ADME, organism-based
REPORTED_ENDPOINT: CL/F

# MOLECULE, VALUE_REPORTED
data = [
    ("CCCC(CCC)C(=O)[O-].[Na+] [VALPROATE SODIUM]", "0.107 mL/min/kg"),
]
